Could you please report measured log10 IC50 for the items listed next?
# ASSAY SYSTEM: PI3Kγ (Homo sapiens, UniProt P48736)
# Sequence (P48736 whole entry, species assumed): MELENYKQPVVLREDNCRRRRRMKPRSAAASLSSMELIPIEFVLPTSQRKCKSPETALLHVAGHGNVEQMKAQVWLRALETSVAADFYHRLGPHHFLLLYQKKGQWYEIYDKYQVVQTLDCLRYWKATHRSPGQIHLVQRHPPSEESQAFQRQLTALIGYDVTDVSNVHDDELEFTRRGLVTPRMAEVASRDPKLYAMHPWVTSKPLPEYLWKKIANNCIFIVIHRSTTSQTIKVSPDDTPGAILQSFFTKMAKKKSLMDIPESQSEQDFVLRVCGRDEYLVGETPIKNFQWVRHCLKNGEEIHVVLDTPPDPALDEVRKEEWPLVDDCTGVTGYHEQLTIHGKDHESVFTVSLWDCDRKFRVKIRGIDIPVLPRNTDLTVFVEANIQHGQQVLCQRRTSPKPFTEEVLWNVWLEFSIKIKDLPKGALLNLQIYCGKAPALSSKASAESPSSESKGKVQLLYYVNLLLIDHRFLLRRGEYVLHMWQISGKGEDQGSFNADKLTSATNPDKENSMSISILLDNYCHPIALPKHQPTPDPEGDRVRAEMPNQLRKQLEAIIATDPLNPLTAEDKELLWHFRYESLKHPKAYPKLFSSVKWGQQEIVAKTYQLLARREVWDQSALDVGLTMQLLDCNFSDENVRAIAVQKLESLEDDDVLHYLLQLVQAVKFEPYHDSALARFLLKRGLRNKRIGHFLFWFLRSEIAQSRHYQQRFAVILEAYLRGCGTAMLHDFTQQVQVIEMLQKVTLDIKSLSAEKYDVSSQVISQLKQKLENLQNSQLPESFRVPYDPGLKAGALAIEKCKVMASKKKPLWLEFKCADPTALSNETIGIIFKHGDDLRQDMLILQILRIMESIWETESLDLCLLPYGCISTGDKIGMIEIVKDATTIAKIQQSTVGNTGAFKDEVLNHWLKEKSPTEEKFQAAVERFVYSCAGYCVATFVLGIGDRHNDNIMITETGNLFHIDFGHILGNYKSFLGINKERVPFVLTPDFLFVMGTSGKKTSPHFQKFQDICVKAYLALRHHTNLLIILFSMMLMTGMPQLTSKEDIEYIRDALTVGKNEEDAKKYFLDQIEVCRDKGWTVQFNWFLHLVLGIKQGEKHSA
Note: values are log10 of IC50 expressed in nM.

## Input What value of log10 IC50 has been recorded for this entry: O=C(Nc1cccnc1)Nc1nc2cc(-c3nc(N4CCOCC4)c4ccn(CC(F)(F)F)c4n3)ccc2[nH]1 [Compound 46]
## Output 2.02

## Input Same thing, different compound: O=C(Nc1ccncc1)Nc1ccc(-c2nc(N3CCOCC3)c3cc[nH]c3n2)cc1 [Compound 4]
## Output 1.81

## Input Same thing, different compound: O=C(Nc1ccncc1)Nc1ccc(-c2nc(N3CCOCC3)c3ccn(CCN4CCCC4)c3n2)cc1 [Compound 23]
## Output 2.57

## Input Same thing, different compound: COC(=O)c1ccc(NC(=O)Nc2ccc(-c3nc(N4CCOCC4)c4ccn(C(C)C)c4n3)cc2)cc1 [Compound 89]
## Output 2.71

## Input Same thing, different compound: O=C(Nc1ccc(F)cc1)Nc1ccc(-c2nc(N3CCOCC3)c3ccn(CC(F)(F)F)c3n2)cc1 [Compound 38]
## Output 3.18

## Input Same thing, different compound: O=C(Nc1nc2cc(-c3nc(N4CCOCC4)c4ccn(CC(F)(F)F)c4n3)ccc2[nH]1)c1ccncc1 [Compound 47]
## Output 3.72

## Input Same thing, different compound: CCn1ccc2c(N3CCOCC3)nc(-c3ccc(NC(=O)Nc4ccc(C(=O)N5CCSCC5)cc4)cc3)nc21 [Compound 71]
## Output 1.59

---

# ASSAY SYSTEM: mTOR Kinase (FLAG-TOR) (Homo sapiens)
# Construct: FLAG
# ASSAY REMARKS: mTOR kinase assay, purified enzyme, DELFIA format
# TEST CONDITIONS: 100 μM ATP, 1.25 μM His6-S6K; read-out: mTOR Kinase Median IC50
Could you please report measured pIC50 for the items listed next?
In plain terms, pIC50 is the concentration in mol/L turned into minus its base-10 logarithm.

## Input What value of pIC50 has been recorded for this entry: CCn1ccc2c(N3CCOCC3)nc(-c3ccc(NC(=O)Nc4ccc(C(=O)OC)cc4)cc3)nc21 [Compound 59]
## Output 8.33

## Input Same thing, different molecule: Cn1ccc2c(N3CCOCC3)nc(-c3ccc(NC(=O)Nc4cccnc4)cc3)nc21 [Compound 44]
## Output 8.72

## Input Same thing, different molecule: CN(C)CCNC(=O)c1ccc(NC(=O)Nc2ccc(-c3nc(N4CCOCC4)c4ccn(CC(F)(F)F)c4n3)cc2)cc1 [Compound 52]
## Output 9.52

## Input Same thing, different molecule: O=C(Nc1ccncc1)Nc1ccc(-c2nc(N3CCOCC3)c3ccn(CC4NC(=O)NC4=O)c3n2)cc1 (stereo not drawn) [Compound 35]
## Output 8.81

## Input Same thing, different molecule: CCn1ccc2c(N3CCOCC3)nc(-c3ccc(NC(=O)Nc4ccc(C(=O)N5CCOCC5)cc4)cc3)nc21 [Compound 66]
## Output 8.62

## Input Same thing, different molecule: CN(C)C1CCN(C(=O)c2ccc(NC(=O)Nc3ccc(-c4nc(N5CCOCC5)c5ccn(CC(F)(F)F)c5n4)cc3)cc2)CC1 [Compound 57]
## Output 8.77

## Input Same thing, different molecule: NC(=O)Nc1cccc(Cn2ccc3c(N4CCOCC4)nc(-c4cccc(CO)c4)nc32)c1 [Compound 19]
## Output 6.36

## Input Same thing, different molecule: CCn1ccc2c(N3CCOCC3)nc(-c3ccc(NC(=O)Nc4ccc(C(=O)N5CCN(C6CCCC6)CC5)cc4)cc3)nc21 [Compound 73]
## Output 8.47

## Input Same thing, different molecule: CN(C)CCn1ccc2c(N3CCOCC3)nc(-c3ccc(NC(=O)NCCc4c[nH]c5ccccc45)cc3)nc21 [Compound 18]
## Output 6.99

## Input Same thing, different molecule: O=C(NCCO)Nc1ccc(-c2nc(N3CCOCC3)c3ccn(CC(F)(F)F)c3n2)cc1 [Compound 42]
## Output 9.03

## Input Same thing, different molecule: CCn1ccc2c(N3CCOCC3)nc(-c3ccc(NC(=O)Nc4ccc(C(=O)NCCOC)cc4)cc3)nc21 [Compound 78]
## Output 8.94

## Input Same thing, different molecule: O=C(Nc1ccncc1)Nc1ccc(-c2nc(N3CCOCC3)c3ccn(CCNc4ccc(F)cc4)c3n2)cc1 [Compound 25]
## Output 7.48

## Input Same thing, different molecule: CCn1ccc2c(N3CCOCC3)nc(-c3ccc(NC(=O)Nc4ccc(C(=O)NCCN5CCCCC5)cc4)cc3)nc21 [Compound 68]
## Output 9.04

## Input Same thing, different molecule: CC(C)(C)OC(=O)N1CCC(n2ccc3c(N4CCOCC4)nc(-c4ccc(NC(=O)Nc5cccnc5)cc4)nc32)CC1 [Compound 94]
## Output 5.87

## Input Same thing, different molecule: CC(C)n1ccc2c(N3CCOCC3)nc(-c3ccc(NC(=O)Nc4ccc(C(=O)N(C)CCN(C)C)cc4)cc3)nc21 [Compound 85]
## Output 9.21

## Input Same thing, different molecule: CNCCN(C)C(=O)c1ccc(NC(=O)Nc2ccc(-c3nc(N4CCOCC4)c4ccn(CC(F)(F)F)c4n3)cc2)cc1 [Compound 53]
## Output 9.24

## Input Same thing, different molecule: CCn1ccc2c(N3CCOCC3)nc(-c3ccc(NC(=O)Nc4ccc(C(=O)N5CCNCC5)cc4)cc3)nc21 [Compound 67]
## Output 9.00

## Input Same thing, different molecule: NC(=O)Nc1cccc(Cn2ccc3c(N4CCOCC4)nc(-c4ccc(NC(=O)Nc5ccncc5)cc4)nc32)c1 [Compound 20]
## Output 8.46

## Input Same thing, different molecule: CCN1CCN(C(=O)c2ccc(NC(=O)Nc3ccc(-c4nc(N5CCOCC5)c5ccn(C(C)C)c5n4)cc3)cc2)CC1 [Compound 92]
## Output 9.17

## Input Same thing, different molecule: O=C(Nc1nc2cc(-c3nc(N4CCOCC4)c4ccn(CC(F)(F)F)c4n3)ccc2[nH]1)c1ccncc1 [Compound 47]
## Output 6.52

## Input Same thing, different molecule: CCOC(=O)Nc1nc2cc(-c3nc(N4CCOCC4)c4ccn(CC(F)(F)F)c4n3)ccc2[nH]1 [Compound 49]
## Output 5.84

## Input Same thing, different molecule: CC(C)n1ccc2c(N3CCOCC3)nc(-c3ccc(NC(=O)Nc4ccncc4)cc3)nc21 [Compound 79]
## Output 8.94

## Input Same thing, different molecule: CCn1ccc2c(N3CCOCC3)nc(-c3ccc(NC(=O)Nc4ccc(C(=O)O)cc4)cc3)nc21 [Compound 60]
## Output 9.07

## Input Same thing, different molecule: CCNC(=O)Nc1ccc(-c2nc(N3CCOCC3)c3ccn(CCN(C)C)c3n2)cc1 [Compound 16]
## Output 7.52

## Input Same thing, different molecule: CN(C)CCNC(=O)Nc1ccc(-c2nc(N3CCOCC3)c3ccn(CCN(C)C)c3n2)cc1 [Compound 14]
## Output 5.67

## Input Same thing, different molecule: CCn1ccc2c(N3CCOCC3)nc(-c3ccc(NC(=O)Nc4ccc(C(=O)N5CCC(N6CCCCC6)CC5)cc4)cc3)nc21 [Compound 72]
## Output 8.85

## Input Same thing, different molecule: O=C(Nc1ccc(-c2nc(N3CCOCC3)c3ccn(CC(F)(F)F)c3n2)cc1)Nc1cccnc1 [Compound 37]
## Output 8.96

## Input Same thing, different molecule: CN(C)CCn1ccc2c(N3CCOCC3)nc(-c3ccc(NC(=O)Nc4cccnc4)cc3)nc21 [Compound 9]
## Output 8.53
